Values were extracted from patent US20200131176A1.

hERG channel (HEK 293 cell line stably expressing hERG channel) (Homo sapiens): reported IC50 for various compounds.
Sequence (Q12809 whole entry): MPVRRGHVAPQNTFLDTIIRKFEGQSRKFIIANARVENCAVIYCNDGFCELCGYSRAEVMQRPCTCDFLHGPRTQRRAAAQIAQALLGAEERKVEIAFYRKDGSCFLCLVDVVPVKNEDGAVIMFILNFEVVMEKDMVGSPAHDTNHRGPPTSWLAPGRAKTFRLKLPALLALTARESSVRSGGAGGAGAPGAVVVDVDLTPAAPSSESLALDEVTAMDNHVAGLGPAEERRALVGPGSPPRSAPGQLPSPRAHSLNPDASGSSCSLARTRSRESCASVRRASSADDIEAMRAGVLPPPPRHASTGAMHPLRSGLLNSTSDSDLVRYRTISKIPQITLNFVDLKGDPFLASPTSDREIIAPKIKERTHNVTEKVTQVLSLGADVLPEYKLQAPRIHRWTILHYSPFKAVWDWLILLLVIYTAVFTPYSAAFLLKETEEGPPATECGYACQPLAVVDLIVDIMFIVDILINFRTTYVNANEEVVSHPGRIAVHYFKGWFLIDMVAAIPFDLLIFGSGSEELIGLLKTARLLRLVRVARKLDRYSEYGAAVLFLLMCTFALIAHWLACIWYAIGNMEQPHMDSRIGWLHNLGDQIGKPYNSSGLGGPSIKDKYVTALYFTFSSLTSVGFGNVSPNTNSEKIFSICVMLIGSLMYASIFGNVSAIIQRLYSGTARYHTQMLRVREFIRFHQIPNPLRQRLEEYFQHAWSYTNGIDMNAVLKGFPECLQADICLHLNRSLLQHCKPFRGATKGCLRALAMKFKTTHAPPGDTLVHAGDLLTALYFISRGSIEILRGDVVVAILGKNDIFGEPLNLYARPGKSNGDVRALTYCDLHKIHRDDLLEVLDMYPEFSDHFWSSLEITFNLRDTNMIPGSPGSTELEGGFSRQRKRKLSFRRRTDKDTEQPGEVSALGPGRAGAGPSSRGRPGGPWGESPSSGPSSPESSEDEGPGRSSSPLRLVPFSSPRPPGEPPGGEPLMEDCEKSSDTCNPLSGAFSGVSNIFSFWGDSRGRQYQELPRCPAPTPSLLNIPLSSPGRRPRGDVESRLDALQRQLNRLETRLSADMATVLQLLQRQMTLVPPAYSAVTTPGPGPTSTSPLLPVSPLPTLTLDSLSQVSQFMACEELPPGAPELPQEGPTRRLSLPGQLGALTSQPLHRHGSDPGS
Give the number; µM is assumed, so skip it.

{"columns": ["sample smiles", "measure", "measurement unit", "result value"],
 "data": [
  ["C=CC(=O)Nc1cc(Nc2nccc(-n3nc(OC)c4ccccc43)n2)c(OC)cc1N(C)CCN(C)C", "IC50", "µM", 2.23],
  ["C=CC(=O)Nc1cc(Nc2nccc(-c3cnc4c(c3)c(Cl)cn4C)n2)c(OC)cc1N(C)CCN(C)C", "IC50", "µM", 1.65],
  ["C=CC(=O)Nc1cc(Nc2nccc(-n3nc(N(C)C)c4ccsc43)n2)c(OC)cc1N(C)CCN(C)C", "IC50", "µM", 3.49],
  ["C=CC(=O)Nc1cc(Nc2nccc(-c3cc(C#N)cc4c3cnn4C)n2)c(OC)cc1N(C)CCN(C)C", "IC50", "µM", 1.01],
  ["C=CC(=O)Nc1cc(Nc2nccc(-c3cc(C#N)c4ccn(C)c4c3)n2)c(OC)cc1N(C)CCN(C)C", "IC50", "µM", 1.09]
]}

Q. // fetch IC50 given entry "C=CC(=O)Nc1cc(Nc2nccc(-c3cc(C#N)cc4c3ccn4C)n2)c(OC)cc1N(C)CCN(C)C"
A. 2.23

Q. Please report the measured IC50 for "C=CC(=O)Nc1cc(Nc2nccc(-n3nc(N(C)C)c4ncccc43)n2)c(OC(F)F)cc1N(C)CCN(C)C"
A. 1.1

Q. Quick one: give measured IC50 for "C=CC(=O)Nc1cc(Nc2nccc(-c3cnc4c(c3)c(C)cn4C)n2)c(OC)cc1N(C)CCN(C)C"
A. 5.78

Q. Look up and state reported IC50 for "C=CC(=O)Nc1cc(Nc2nccc(-c3ccc4c(c3)c(C)cn4C)n2)c(OC)cc1N(C)CCN(C)C"
A. 4.08

Q. // fetch IC50 given entry "C=CC(=O)Nc1cc(Nc2nccc(-c3cc4c(C)c[nH]c4c(C#N)n3)n2)c(OC)cc1N(C)CCN(C)C"
A. 0.858

Q. Return IC50 (reported value) for this compound: "C=CC(=O)Nc1cc(Nc2nccc(-n3nc(N(C)C)c4ncccc43)n2)c(OCC(F)F)cc1N(C)CCN(C)C"
A. 3.23

###

- target of assay: L858R/T790M double mutant EGFR in H1975 cells (Homo sapiens, UniProt P00533, L858R/T790M)
- Construct: endogenous in cells
- Sequence (P00533 25-1210 T790M/L858R): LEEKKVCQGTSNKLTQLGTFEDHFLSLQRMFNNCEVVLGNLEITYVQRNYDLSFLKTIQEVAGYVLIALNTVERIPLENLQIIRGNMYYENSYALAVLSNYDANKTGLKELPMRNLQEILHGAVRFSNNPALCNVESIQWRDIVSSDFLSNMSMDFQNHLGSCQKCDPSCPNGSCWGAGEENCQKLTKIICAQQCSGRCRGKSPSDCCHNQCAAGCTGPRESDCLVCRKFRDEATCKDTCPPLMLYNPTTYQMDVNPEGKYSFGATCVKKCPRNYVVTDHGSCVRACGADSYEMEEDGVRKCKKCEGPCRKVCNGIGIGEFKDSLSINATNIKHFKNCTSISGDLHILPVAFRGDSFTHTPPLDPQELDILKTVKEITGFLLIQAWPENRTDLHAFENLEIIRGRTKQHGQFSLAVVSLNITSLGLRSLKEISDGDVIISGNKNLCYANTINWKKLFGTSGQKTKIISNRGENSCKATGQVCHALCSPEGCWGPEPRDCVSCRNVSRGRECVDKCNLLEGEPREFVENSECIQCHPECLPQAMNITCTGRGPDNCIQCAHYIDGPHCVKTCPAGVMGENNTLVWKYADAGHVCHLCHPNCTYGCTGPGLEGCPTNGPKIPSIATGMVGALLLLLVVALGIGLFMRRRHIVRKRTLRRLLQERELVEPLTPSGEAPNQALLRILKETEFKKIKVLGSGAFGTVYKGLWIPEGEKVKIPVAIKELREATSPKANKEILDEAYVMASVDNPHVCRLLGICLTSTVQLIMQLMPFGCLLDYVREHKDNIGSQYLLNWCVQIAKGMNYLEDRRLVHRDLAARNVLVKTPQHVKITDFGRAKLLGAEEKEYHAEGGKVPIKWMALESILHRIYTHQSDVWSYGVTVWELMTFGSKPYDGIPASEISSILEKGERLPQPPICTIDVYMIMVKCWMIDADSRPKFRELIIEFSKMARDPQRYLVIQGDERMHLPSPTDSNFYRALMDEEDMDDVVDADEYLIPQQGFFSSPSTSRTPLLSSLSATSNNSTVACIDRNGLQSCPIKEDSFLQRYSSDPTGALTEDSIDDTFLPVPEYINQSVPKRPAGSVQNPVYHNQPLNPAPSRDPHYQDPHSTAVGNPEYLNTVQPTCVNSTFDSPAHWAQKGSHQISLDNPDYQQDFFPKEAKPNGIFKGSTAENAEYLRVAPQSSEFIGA
- procedure text: L858R/T790M double mutant H1975 autophosphorylation inhibition assay (ELISA)
- study conditions: cellular EGFR autophosphorylation, H1975, 2 h treatment; read-out: DM (H1975) IC50
The following molecules are shown together with reported pIC50 values.
pIC50 here: minus log base 10 of the concentration, concentration in moles per litre.

{"columns": ["sample smiles", "target of assay", "result value"],
 "data": [
  ["C=CC(=O)Nc1cc(Nc2nccc(-c3cc(C#N)cc4c3cnn4C)n2)c(OC)cc1N(C)CCN(C)C", "L858R/T790M double mutant EGFR in H1975 cells (Homo sapiens, UniProt P00533, L858R/T790M)", 8.24]
]}

Q. Write down pIC50 measured for item "C=CC(=O)Nc1cc(Nc2nccc(-c3cc(C#N)c4ccn(C)c4c3)n2)c(OC)cc1N(C)CCN(C)C"
A. 8.08

Q. Entry "C=CC(=O)Nc1cc(Nc2nccc(-c3cc4c(C)c[nH]c4c(C#N)n3)n2)c(OC)cc1N(C)CCN(C)C" needs its pIC50 filled in; supply it.
A. 8.67

Q. Give a short answer stating reported pIC50 for "C=CC(=O)Nc1cc(Nc2nccc(-n3nc(NCC)c4ncccc43)n2)c(OC(F)F)cc1N(C)CCN(C)C" .
A. 8.97
